study target: recombinant human secreted phospholipase A2 (Homo sapiens)
Sequence (P14555 21-144): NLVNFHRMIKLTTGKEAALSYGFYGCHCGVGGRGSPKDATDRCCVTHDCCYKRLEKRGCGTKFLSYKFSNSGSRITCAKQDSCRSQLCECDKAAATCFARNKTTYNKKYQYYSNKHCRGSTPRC
experiment notes: sPLA2 Chromogenic Assay (Assay 1)
stated conditions: diheptanoyl thio-PC substrate, pH 7.5, 40° C. for 30 minutes, absorbance at 405 nanometers
measured quantity: IC50 (nM)

Reference set, count: 8
[[record]]
compound = "Cc1c(C(=O)C(N)=O)c2c(OCc3ccc4ccccc4n3)cccn2c1Cc1ccccc1-c1ccccc1 [Compound 59p]"
measured_quantity = "IC50"
reported = 200

[[record]]
compound = "Cc1c(C(=O)C(N)=O)c2ccccn2c1Cc1ccccc1"
measured_quantity = "IC50"
reported = 890

[[record]]
compound = "CCc1c(C(=O)C(N)=O)c2c(OCC(=O)O)cccn2c1CC1CCCCC1 [Compound 52b]"
measured_quantity = "IC50"
reported = 21

[[record]]
compound = "CCc1c(C(=O)C(N)=O)c2c(OCC(=O)OC(C)OC(=O)OC3CCCC3)cccn2c1Cc1ccccc1-c1ccccc1 (stereo not shown) [Compound 59g]"
measured_quantity = "IC50"
reported = 39

[[record]]
compound = "CCCCc1ccc(Cc2c(CC)c(C(=O)C(N)=O)c3c(OC)cccn23)cc1 [Compound 49s]"
measured_quantity = "IC50"
reported = 360

[[record]]
compound = "NC(=O)C(=O)c1c(C2CC2)c(CC2CCCCC2)n2cccc(OCC(=O)O)c12 [Compound 58k]"
measured_quantity = "IC50"
reported = 43

[[record]]
compound = "CCc1c(C(=O)C(N)=O)c2c(OCC(=O)O)cccn2c1Cc1sccc1-c1cccs1 [Compound 52l]"
measured_quantity = "IC50"
reported = 10

[[record]]
compound = "CCc1c(C(=O)C(N)=O)c2c(OCC(=O)OCCC(=O)OC3(C)CCCC3)cccn2c1Cc1ccccc1-c1ccccc1 [Compound 59h]"
measured_quantity = "IC50"
reported = 61


A. CCOC(=O)COc1cccn2c(Cc3ccccc3)c(CC)c(C(=O)C(N)=O)c12 [Compound 37a]
B. COC(=O)COc1cccn2c(Cc3ccccc3-c3ccccc3)c(SC)c(C(=O)C(N)=O)c12
C. CSc1c(C(=O)C(N)=O)c2c(OCC(=O)O)cccn2c1Cc1ccccc1-c1ccccc1
D. NC(=O)C(=O)c1c(C2CCCC2)c(Cc2ccccc2-c2ccccc2)n2cccc(OCC(=O)O)c12 [Compound 58f]
E. CCOC(=O)COc1cccn2c(Cc3ccccc3)c(C)c(C(=O)C(N)=O)c12 [Compound 37g]
Query: Sort ascending by IC50. Write out the labels following the order that was asked for.
Reply: C, E, A, B, D

1. CCc1c(C(=O)C(N)=O)c2c(OCC(=O)OCCN3CCOCC3)cccn2c1Cc1ccccc1-c1ccccc1 [Compound 59i]
2. CCc1c(C(=O)C(N)=O)c2c(OCC(=O)OC)cccn2c1Cc1sccc1-c1cccs1 [Compound 51l]
Query: Kindly identify the item with the lower IC50 figure among these two: 1 and 2 Write down the label attached to your selection.
Reply: 1

====

Recorded melting point values for a group of compounds are listed next.

Query: Item CCCCc1ccc(Cc2c(CC)c(C(=O)C(N)=O)c3c(OC)cccn23)cc1 [Compound 49s] has what recorded melting point?
Reply: 195 to 196 °C

Query: Item COC(=O)COc1cccn2c(CC3CCCCC3)c(C)c(C(=O)C(N)=O)c12 [Compound 51t] has what recorded melting point?
Reply: 177 to 178 °C

Query: Item CCCC(CCC)Cc1c(CC)c(C(=O)C(N)=O)c2c(OCC(=O)O)cccn12 [Compound 52f] has what recorded melting point?
Reply: 176 to 177 °C

Query: Item Cc1c(C(=O)C(N)=O)c2c(OCc3ccc4ccccc4n3)cccn2c1Cc1ccccc1-c1ccccc1 [Compound 59p] has what recorded melting point?
Reply: 165 to 167 °C

====

study target: recombinant human secreted phospholipase A2 (Homo sapiens, UniProt P14555)
Sequence (P14555 21-144): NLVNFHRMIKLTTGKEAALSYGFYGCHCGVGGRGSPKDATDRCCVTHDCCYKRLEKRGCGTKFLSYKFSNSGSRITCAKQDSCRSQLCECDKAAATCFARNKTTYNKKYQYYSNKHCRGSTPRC
experiment notes: sPLA2 Chromogenic Assay (Assay 1)
stated conditions: diheptanoyl thio-PC substrate, pH 7.5, 40° C. for 30 minutes, absorbance at 405 nanometers
measured quantity: IC50 (nM)

Reference set, count: 4
[[record]]
compound = "NC(=O)C(=O)c1c(C2CC2)c(Cc2ccccc2)n2cccc(OCC(=O)O)c12 [Compound 52r]"
measured_quantity = "IC50"
reported = 46

[[record]]
compound = "CCc1c(C(=O)C(N)=O)c2c(OCC(=O)O)cccn2c1Cc1cccc(-c2ccccc2)c1 [Compound 58g]"
measured_quantity = "IC50"
reported = 9

[[record]]
compound = "CCc1c(C(=O)C(N)=O)c2c(OCc3nnn[nH]3)cccn2c1Cc1ccccc1-c1ccccc1 [Compound 59m]"
measured_quantity = "IC50"
reported = 7

[[record]]
compound = "CCc1c(C(=O)C(N)=O)c2c(OCC(=O)OC)cccn2c1Cc1cccs1 [Compound 51k]"
measured_quantity = "IC50"
reported = 220


I. CCc1c(C(=O)C(N)=O)c2c(OCC(=O)O)cccn2c1Cc1cccs1 [Compound 52k]
II. CCc1c(C(=O)C(N)=O)c2c(OCc3ccccc3)cccn2c1Cc1cccs1 [Compound 49k]
Query: Kindly identify the item with the lower IC50 figure among these two: I and II Write down the label attached to your selection.
Reply: I
(I: 11 nM, II: 790 nM)

====

study target: recombinant human secreted phospholipase A2 (Homo sapiens)
Sequence (P14555 21-144): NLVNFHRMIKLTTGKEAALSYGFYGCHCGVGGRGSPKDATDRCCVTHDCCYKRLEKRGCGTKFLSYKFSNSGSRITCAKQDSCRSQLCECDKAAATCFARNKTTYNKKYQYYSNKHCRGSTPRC
experiment notes: sPLA2 Chromogenic Assay (Assay 1)
stated conditions: diheptanoyl thio-PC substrate, pH 7.5, 40° C. for 30 minutes, absorbance at 405 nanometers
pIC50: −log10 of the molar value.
measured quantity: pIC50

Reference set, count: 4
[[record]]
molecule = "CCc1c(C(=O)C(N)=O)c2c(OCC(=O)O)cccn2c1Cc1ccccc1[N+](=O)[O-] [Compound 52n]"
reported = 7.44

[[record]]
molecule = "CCc1c(CC(N)=O)c2c(OCC(=O)O)cccn2c1Cc1cccc(Cl)c1 [Compound 22y]"
reported = 7.82

[[record]]
molecule = "CCc1c(C(=O)C(N)=O)c2c(OCC(=O)OC)cccn2c1CC1CCCCCC1 [Compound 51d]"
reported = 6.26

[[record]]
molecule = "Cc1c(C(=O)C(N)=O)c2c(OCC(=O)O)cccn2c1Cc1ccccc1-c1ccccc1 [Compound 58a]"
reported = 8.10


a. CCc1c(Cc2ccccc2)c2ccc(OCCCC(=O)O)cn2c1C(=O)C(N)=O
b. COC(=O)COc1cccn2c(CC3CCCCC3)c(C)c(C(=O)C(N)=O)c12 [Compound 51t]
Query: Pick the one with the larger pIC50: a vs b Write down the label attached to your selection.
Reply: b

====

measured quantity: melting point

Reference set, count: 6
[[record]]
molecule = "CCc1c(C(=O)C(N)=O)c2c(OCC(=O)OC)cccn2c1Cc1cccc(OC)c1 [Compound 51m]"
measured_quantity = "melting point"
reported = "155 to 157 °C"

[[record]]
molecule = "CCc1c(CC(N)=O)c2c(OCC(=O)OCc3ccccc3)cccn2c1Cc1cccc(Cl)c1 [Compound 21y]"
measured_quantity = "melting point"
reported = "157 to 158 °C"

[[record]]
molecule = "CCc1c(C(=O)C(N)=O)c2c(OCC(=O)O)cccn2c1CC=Cc1ccccc1 [Compound 58h]"
measured_quantity = "melting point"
reported = "222 to 224 °C"

[[record]]
molecule = "CCc1c(C(=O)C(N)=O)c2c(OCC(=O)OC(C)OC(=O)OC3CCCC3)cccn2c1Cc1ccccc1-c1ccccc1 (centres unmarked) [Compound 59g]"
measured_quantity = "melting point"
reported = "74 to 80 °C"

[[record]]
molecule = "CCc1c(C(=O)C(N)=O)c2c(OCC(=O)O)cccn2c1Cc1sccc1-c1cccs1 [Compound 52l]"
measured_quantity = "melting point"
reported = "209 to 210 °C"

[[record]]
molecule = "NC(=O)C(=O)c1c(C2CC2)c(Cc2ccccc2-c2ccccc2)n2ccc(OCCCC(=O)O)cc12 [Compound 67b]"
measured_quantity = "melting point"
reported = "112 to 121 °C (dec.)"


Query: Item CCc1c(C(=O)C(N)=O)c2c(OCC(=O)OC)cccn2c1Cc1sccc1-c1cccs1 [Compound 51l] has what recorded melting point?
Reply: 176 to 177 °C

Query: Item CCc1c(C(=O)C(N)=O)c2c(OCC(=O)OCC(=O)OC(C)(C)C)cccn2c1Cc1ccccc1-c1ccccc1 [Compound 59d] has what recorded melting point?
Reply: 102 to 104 °C

Query: Item CCc1c(C(=O)C(N)=O)c2c(OCc3ccccc3)cccn2c1Cc1ccccc1 [Compound 35a] has what recorded melting point?
Reply: 188 to 189 °C

Query: Item CCc1c(C(=O)C(N)=O)c2c(OCC(=O)O)cccn2c1CCCc1ccccc1 [Compound 58i] has what recorded melting point?
Reply: 215 to 217 °C

Query: Item CCOC(=O)COc1cccn2c(Cc3cccc(Cl)c3)c(CC)c(C(=O)C(N)=O)c12 [Compound 37h] has what recorded melting point?
Reply: 172 to 175 °C

Query: Item CCc1c(C(=O)C(N)=O)c2cc(OCCCCCC(=O)O)ccn2c1Cc1ccccc1-c1ccccc1 has what recorded melting point?
Reply: 84 to 94 °C (dec.)

Query: Item Cc1c(C(=O)C(N)=O)c2c(NCC(=O)O)cccn2c1CC1CCCCC1 [Compound 90b] has what recorded melting point?
Reply: > 300 °C

Query: Item NC(=O)C(=O)c1c(C2CC2)c(Cc2cccc3ccccc23)n2cccc(OCC(=O)O)c12 [Compound 58j] has what recorded melting point?
Reply: 205 to 207 °C

Query: Item CCc1c(C(=O)C(N)=O)c2c(OCC(=O)OC(C)(C)C)cccn2c1Cc1ccccc1 [Compound 38a] has what recorded melting point?
Reply: 161 to 162 °C

Query: Item CCOC(=O)COc1cccn2c(Cc3ccccc3-c3ccccc3)c(CC)c(C(=O)C(N)=O)c12 [Compound 37d] has what recorded melting point?
Reply: 127 to 129 °C

Query: Item CCc1c(C(=O)C(N)=O)c2c(OCCC(=O)OC)cccn2c1Cc1ccccc1-c1ccccc1 [Compound 70c] has what recorded melting point?
Reply: 159 to 162 °C

Query: Item CCc1c(C(=O)C(N)=O)c2c(OCC(=O)OC)cccn2c1Cc1ccccc1Cc1ccccc1 [Compound 51j] has what recorded melting point?
Reply: 190 to 191 °C

Query: Item CCc1c(C(=O)C(N)=O)c2c(OCC(=O)OC)cccn2c1-c1cccs1 [Compound 51k] has what recorded melting point?
Reply: 182 °C

Query: Item Cc1c(C(=O)C(N)=O)c2c(OCc3ccccc3)cccn2c1Cc1ccccc1 [Compound 35g] has what recorded melting point?
Reply: 212 to 214 °C

Query: Item CCc1c(CC(N)=O)c2c(OCC(=O)OC)cccn2c1Cc1ccccc1 [Compound 21v] has what recorded melting point?
Reply: 159 to 163 °C

Query: Item CCc1c(C(=O)C(N)=O)c2c(OCc3nnn[nH]3)cccn2c1Cc1ccccc1-c1ccccc1 [Compound 59m] has what recorded melting point?
Reply: 206 to 209 °C (dec.)

Query: Item CCOC(=O)COc1cccn2c(Cc3ccccc3)c(C)c(C(=O)C(N)=O)c12 [Compound 37g] has what recorded melting point?
Reply: 193 to 195 °C

Query: Item COC(=O)CNc1cccn2c(Cc3ccccc3)c(C)c(C(=O)C(N)=O)c12 [Compound 89a] has what recorded melting point?
Reply: 293 °C (dec.)
